# method.description: Approximate solubility of starting material in 20 solvents at RT
# Format: physicochemical
# measurement.setup: organic solvent or mixture, thermodynamic from solid, DCM, RT
metric.name: solubility

[ask] May I ask what solubility has been recorded for `O=C(/C=C/c1ccc2c(c1)CCN2S(=O)(=O)c1ccccc1)NO` ?
[reply] 1000 to 2000 µg/mL
